Data credit: PubChem BioAssay AID493181

# Tested on: M. tuberculosis H37Rv growth inhibition, no glycerol
# assay-procedure: M. tuberculosis growth inhibition, confirmation, H37Rv, purified and synthesized compounds (AID 493181)
# experimental-parameters: 90% growth inhibition concentration
// assign 1 (yes) if IC90 falls strictly below 2000 nM, else 0 (no) (ties count as 0 (no))

{"compound": "CCC(C)Nc1ccc(NC(C)CC)cc1 (configuration not stated)", "class": "1 (yes)"}
{"compound": "CCc1ccc(/C=C2/C(=O)N(C)C(=S)N2CC(=O)OC)s1", "class": "0 (no)"}
{"compound": "COC(=O)C(C)Oc1ccc(-c2nccc(-c3ccccn3)n2)cc1 (configuration not stated)", "class": "0 (no)"}
{"compound": "CCOC(=O)c1ccc(NC(=O)Cn2ncc(Cl)c(Cl)c2=O)cc1", "class": "1 (yes)"}
{"compound": "Cc1nn2c(NCc3ccccn3)cc(C(C)C)nc2c1-c1ccccc1", "class": "0 (no)"}
{"compound": "CCOC(=O)COc1ccc(/C=C2\\NC(=S)N(CC)C2=O)cc1", "class": "0 (no)"}
{"compound": "O=C(NCC(c1cccs1)N1CCOCC1)c1cc([N+](=O)[O-])cc([N+](=O)[O-])c1 (configuration not stated)", "class": "1 (yes)"}
